Target: Recombinant GST-TAG-MASTL (Homo sapiens, UniProt Q96GX5)
Construct: GST; purchased Thermo Fisher Scientific
Sequence (Q96GX5 1-879): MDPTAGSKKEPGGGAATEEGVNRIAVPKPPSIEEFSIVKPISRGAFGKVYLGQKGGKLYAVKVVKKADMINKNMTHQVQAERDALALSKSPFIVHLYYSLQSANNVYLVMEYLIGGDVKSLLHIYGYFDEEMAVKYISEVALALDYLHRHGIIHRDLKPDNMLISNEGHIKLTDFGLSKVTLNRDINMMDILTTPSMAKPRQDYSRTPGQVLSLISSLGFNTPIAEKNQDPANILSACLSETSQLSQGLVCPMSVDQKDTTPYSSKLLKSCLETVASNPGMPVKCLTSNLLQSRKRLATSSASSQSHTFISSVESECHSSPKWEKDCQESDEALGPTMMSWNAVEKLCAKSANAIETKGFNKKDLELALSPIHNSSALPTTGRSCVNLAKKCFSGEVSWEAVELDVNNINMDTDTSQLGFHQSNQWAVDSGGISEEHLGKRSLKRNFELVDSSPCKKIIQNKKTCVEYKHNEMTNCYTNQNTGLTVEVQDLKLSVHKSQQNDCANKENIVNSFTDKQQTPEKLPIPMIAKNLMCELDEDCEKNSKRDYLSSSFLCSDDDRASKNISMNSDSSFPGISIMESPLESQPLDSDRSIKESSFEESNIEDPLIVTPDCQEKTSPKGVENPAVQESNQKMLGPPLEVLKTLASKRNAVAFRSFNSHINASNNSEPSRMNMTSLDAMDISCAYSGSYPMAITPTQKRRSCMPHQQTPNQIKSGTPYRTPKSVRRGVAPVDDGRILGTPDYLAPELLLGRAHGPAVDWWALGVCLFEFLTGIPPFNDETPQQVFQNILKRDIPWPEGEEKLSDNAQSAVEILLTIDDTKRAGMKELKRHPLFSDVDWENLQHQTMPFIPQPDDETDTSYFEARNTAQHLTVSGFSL
Test: HTRF-based kinase assay (HTRF KinEASE assay kit)
Type: biochemical
Settings: footnote a: concentration 1.25 µM; read-out: MASTL activity (%) HTRF
Consider the following compounds; for each one, report its activity at 1.25 µM.
Just the number please, in %, no unit attached.

Ask | Form field - read-out: activity at 1.25 µM; system: Recombinant GST-TAG-MASTL (Homo sapiens, UniProt Q96GX5); submitted item: `c1ccc(Nc2nc(Nc3cc(C4CC4)[nH]n3)c3ccccc3n2)cc1`
Reply | 54.9

Ask | Record: `CN(C)S(=O)(=O)c1ccc(Nc2nc(Nc3cc(C4CC4)[nH]n3)c3ccccc3n2)cc1`
Reply | 27

Ask | Record: CC(C)(C)OC(=O)N1CC2CC1CN2c1nc(Nc2cc(C3CC3)[nH]n2)c2ccccc2n1 (stereo not shown)
Reply | 53.8

Ask | Record: CCNC(=O)N1CC2CC1CN2c1nc(Nc2cc(C3CC3)[nH]n2)c2ccccc2n1 (stereo not shown) [compound 15a]
Reply | 61.1
